// data source = PubChem BioAssay (NCI)

- Test system: CCRF-CEM leukemia
- Experimental Protocol: NCI tumour cell line growth inhibition, 48 h
Property: TGI

Compound	Measured Target	TGI
Cn1c2c([N+](=O)[O-])[se]nc2c(=O)n1-c1ccc([N+](=O)[O-])cc1	CCRF-CEM leukemia	> 100 µM

Field request: TGI | item: C#CCN1C(=O)/C(=c2\sc3n(c2=O)C2C(NN=3)N(CC)C(=O)N2CC)c2ccccc21 (stereo not drawn)
> 100 µM

What does the record list as TGI for CCOC(=O)c1ccc(C(=O)C(C(C)=O)C(=O)OC(C)(C)C)n1C (stereo not drawn) ?
> 100 µM

###

TGI listing for selected compounds.
- Tested on: OVCAR-8 ovarian
- Experimental Protocol: NCI tumour cell line growth inhibition, 48 h

Below are worked cases with known answers.
Compound	Measurement
COC(=O)C(/C(=N/NC(=O)c1ccncc1)C(=O)Nc1ccccc1OC)c1nc2ccc(Cl)cc2[nH]c1=O (stereo not given)	> 100 µM
CCOC(=O)c1cc2c(OC(C)=O)ccc(OC(C)=O)c2s1	3.51 µM
O=C1NC(=S)N/C1=C/c1ccccc1O	> 100 µM
CCCCCCCCCCCC(=O)OCC1OC(n2cc(F)c(=O)[nH]c2=O)C(NC(=O)OCc2ccccc2)C(O)C1O (stereo not given)	43.7 µM
Cn1c(=O)c2c(-c3ccccc3)onc2n(C)c1=O	> 100 µM

Attention now shifts to the item below.
What measured TGI is associated with CC1(C)CCC[C@]23C(=O)O[C@](O)(C(=O)C4=C[C@@](C)(/C=C/CCCc5ccc6ccc7cccc8ccc5c6c78)CC[C@@]42O)[C@@H]13 on OVCAR-8 ovarian?
1.15 µM

###

- Tested on: HOP-92 NSCLC
- Experimental Protocol: NCI tumour cell line growth inhibition, 48 h
GI50 reference

# count of solved cases: 3
Compound	Measured Target	Property	Measurement
COc1ccc(C(=O)c2cc(OC)c(OC)c(OC)c2)cc1OC(C)=O	HOP-92 NSCLC	GI50	1.73 µM
CC(CN=C(CC(=O)c1ccc(Br)cc1)c1ccccc1)N=C(CC(=O)c1ccc(Br)cc1)c1ccccc1 (centres undefined)	HOP-92 NSCLC	GI50	11.5 µM
Cn1nc(C(F)(F)F)c(-c2ccc(Cl)c(C(F)(F)F)c2)c1-c1ccc(OCc2ccc(Cl)cc2)cc1O	HOP-92 NSCLC	GI50	1.11 µM

// next entry
Give the measured GI50 of O=C1c2[nH]cc(CN3CCNCC3)c2C(=O)c2c1c(O)c1ccccc1c2O .
3.05 µM

###

- Tested on: SK-MEL-5 melanoma
- Experimental Protocol: NCI tumour cell line growth inhibition, 48 h
Property: TGI

Here is how some compounds turned out for TGI.
Compound	TGI
Clc1nc(-[n+]2ccc(-c3ccncc3)cc2)nc(Nc2ccccc2)c1Cl	> 100 µM
CCN(CC)CCN1C(=O)c2c(c(C)c3c(oc4cc(O)ccc43)c2C)C1=O	2.92 µM
CC1(C)COC(c2cccc(C3=NC(C)(C)CO3)c2Br)=N1	> 100 µM
Cn1nc(C(F)(F)F)c(-c2ccc(Cl)c(C(F)(F)F)c2)c1-c1ccc(OCc2ccc(Cl)cc2)cc1O	2.23 µM
O=c1[nH]c(=O)n(C2OC(COP(=O)(O)OP(=O)(O)O)C(O)C2O)cc1F (configuration not stated)	> 50 µM

Please report the recorded TGI for COc1ccc(/C=C2\Cc3ccccc3C2=O)cc1OC .
> 100 µM

Look at this compound and give its reported TGI. COc1ccccc1/C=C\c1cnnc2ccccc12
> 10 µM

Which value of TGI has been reported for Cc1ccc(C(=O)N(C(C)C)C(C)C)cc1N=NN(C)C in the records?
> 100 µM

Give the measured TGI of CC(=O)N(CN1C(=O)CCC1C(=O)O)c1ccccc1 (configuration not stated) .
> 100 µM

Recorded TGI of O=P(Oc1ccc(Cl)cc1)(Oc1ccc(Cl)cc1)N1CC1 , please.
> 10 µM

Fill in: TGI of COc1cc(C2C3=C(CCC3=O)Oc3cc4c(cc32)OCO4)cc(OC)c1OC (configuration not stated) is ___
15.2 µM

Fill blank: measured TGI of the compound O=C(/C=C/c1ccc(C(F)(F)F)cc1)c1ccc(Nc2nc(NCCO)nc(NCCO)n2)cc1 is ____.
10.5 µM
